Recorded values, source ChEMBL document CHEMBL1141045.

- test description: AUC after administration of 30 (mpk) to rat through oral route
- Format: ADME, organism-based, Plasma
- test settings: plasma, 30 mg/kg

smiles | AUC, µM·h
CCCNS(=O)(=O)N[C@H]1[C@@H]2CC[C@H]1Cc1ccccc1C2 | 0.6

* * *

- target of assay: Gamma-secretase
- test description: Inhibitory concentration against gamma-secretase in whole cell SH-SY5Y assay
Measured IC50, listed per entry for reference.
attribute measured: IC50

compound | value measured
CCNS(=O)(=O)N[C@H]1[C@@H]2CC[C@H]1Cc1ccccc1C2 | 0.394 µM
O=S(=O)(NC1[C@@H]2CC[C@H]1Cc1ccc(/C=C/CN3CCOCC3)cc1C2)c1ccc(Cl)s1 (some centres not stated) | 0.001 µM
CCCCNS(=O)(=O)N[C@H]1[C@@H]2CC[C@H]1Cc1ccccc1C2 | 0.766 µM
O=S1(=O)N[C@@]2(CN1CC(F)(F)F)[C@@H]1CC[C@H]2Cc2ccc(/C=C/CN3CCOCC3)cc2C1 | 0.0034 µM
CCN1C[C@]2(NS1(=O)=O)[C@@H]1CC[C@H]2Cc2ccccc2C1 | 0.429 µM
CCCN1C[C@]2(NS1(=O)=O)[C@@H]1CC[C@H]2Cc2ccccc2C1 | 0.138 µM
CC1CCN(C/C=C/c2ccc3c(c2)C[C@H]2CC[C@@H](C3)[C@]23CN(CC(F)(F)F)S(=O)(=O)N3)CC1 | 0.018 µM
CN1CCN(C/C=C/c2ccc3c(c2)C[C@H]2CC[C@@H](C3)[C@]23CN(CC(F)(F)F)S(=O)(=O)N3)CC1=O | 0.021 µM
O=S1(=O)N[C@@]2(CN1CC(F)(F)F)[C@@H]1CC[C@H]2Cc2ccc(/C=C/CN3CCC(C(F)(F)F)CC3)cc2C1 | 0.0005 µM
CC(=O)N1CCN(C/C=C/c2ccc3c(c2)C[C@H]2CC[C@@H](C3)[C@]23CN(CC(F)(F)F)S(=O)(=O)N3)CC1 | 0.004 µM
O=S1(=O)N[C@@]2(CN1CC(F)(F)F)[C@@H]1CC[C@H]2Cc2ccc(/C=C/CN3CCCCC3)cc2C1 | 0.25 µM
CCCNS(=O)(=O)N[C@H]1[C@@H]2CC[C@H]1Cc1ccccc1C2 | 0.132 µM
CCCN1C[C@]2(NS1(=O)=O)[C@@H]1CC[C@H]2Cc2ccc(/C=C/CN3CCOCC3)cc2C1 | 0.019 µM
CCCCN1C[C@]2(NS1(=O)=O)[C@@H]1CC[C@H]2Cc2ccccc2C1 | 0.122 µM
O=S(=O)(N[C@H]1[C@@H]2CC[C@H]1Cc1ccccc1C2)NC(F)(F)F | 0.134 µM
O=S1(=O)N[C@@]2(CN1C(F)(F)F)[C@@H]1CC[C@H]2Cc2ccccc2C1 | 0.017 µM
CCCN1C[C@]2(NS1(=O)=O)[C@@H]1CC[C@H]2Cc2ccc(/C=C/CN3CCC(C(F)(F)F)CC3)cc2C1 | 0.002 µM
